# System: Vero E6
# methodNotes: cell viability relative to DMSO; higher = less toxic
# conditionSet: 72 h; 10 nM
Measured cell viability accompanies every entry in the list below.
Report the value in % with no unit label.

Field: example entries. Status: answers known.
compound	recordedResult
CN1C/C=C/CCOc2cccc(c2)-c2ccnc(n2)Nc2cccc(c2)C1	97.8
CN(C)CCC=C1c2ccccc2C=Cc2ccccc21	99.6
CCC(=O)OCC(=O)[C@@]1(OC(=O)CC)[C@@H](C)C[C@H]2[C@@H]3CCC4=CC(=O)C=C[C@]4(C)[C@@]3(F)[C@@H](O)C[C@@]21C [BETAMETHASONE 17,21-DIPROPIONATE]	95.2
Clc1cccc2c1CN(C1=NCCN1)C2	98.7
O=C(O)c1cccnc1	98.7
C/C(=C\c1csc(C)n1)[C@@H]1C[C@@H]2O[C@]2(C)CCC[C@H](C)[C@H](O)[C@@H](C)C(=O)C(C)(C)[C@@H](O)CC(=O)O1	48.9
CO[C@H]1/C=C/O[C@@]2(C)Oc3c(C)c(O)c4c(O)c(c(/C=N/N5CCN(C)CC5)c(O)c4c3C2=O)NC(=O)/C(C)=C\C=C\[C@H](C)[C@H](O)[C@@H](C)[C@@H](O)[C@@H](C)[C@H](OC(C)=O)[C@@H]1C	97.8
C/C=C(/C)C(=O)O[C@H]1C(C)=C[C@]23C(=O)[C@@H](C=C(CO)[C@@H](O)[C@]12O)[C@H]1[C@@H](C[C@H]3C)C1(C)C [ingenol-mebutate]	83.9
C[C@@H]1CC[C@@]2(OC1)O[C@H]1C[C@H]3[C@@H]4CC=C5C[C@@H](O)CC[C@]5(C)[C@H]4CC[C@]3(C)[C@H]1[C@@H]2C	107
O=C(N[C@H]1CN2CCC1CC2)c1ccc2c(c1)OCCO2	89.3

// returns reported cell viability for input "CCOC(=O)[C@@]1(CCCCCCOc2ccc(Cl)cc2)CO1"
106

// returns reported cell viability for input "O=C(O)C[C@H](O)C(=O)O"
107

// returns reported cell viability for input "CC(C)CN(C[C@@H](O)[C@H](Cc1ccccc1)NC(=O)O[C@H]1CCOC1)S(=O)(=O)c1ccc(N)cc1"
102

// returns reported cell viability for input "Clc1ccc(Nc2nnc(Cc3ccncc3)c3ccccc23)cc1"
93.8

====

# System: Caco-2
# methodNotes: cell viability relative to DMSO; higher = less toxic
# conditionSet: 72 h; 100 nM
Measured cell viability accompanies every entry in the list below.
Report the value in % with no unit label.

chemicalSmiles	targetOrSystem	cell viability (%)
CC(=O)N[C@H](Cc1ccc2ccccc2c1)C(=O)N[C@H](Cc1ccc(Cl)cc1)C(=O)N[C@H](Cc1cccnc1)C(=O)N[C@@H](CO)C(=O)N[C@@H](Cc1ccc(NC(=O)[C@@H]2CC(=O)NC(=O)N2)cc1)C(=O)N[C@H](Cc1ccc(NC(N)=O)cc1)C(=O)N[C@@H](CC(C)C)C(=O)N[C@@H](CCCCNC(C)C)C(=O)N1CCC[C@H]1C(=O)N[C@H](C)C(N)=O	Caco-2	99.9

// returns reported cell viability for input "Nc1c(Br)cc(Br)cc1CN[C@H]1CC[C@H](O)CC1"
98.5

====

Measured cell viability accompanies every entry in the list below.
# Test system: HepG2
# methodNotes: cell viability relative to DMSO; higher = less toxic
# conditionSet: 72 h; 1000 nM
Report the value in % with no unit label.

> print(dat)
                                   compound       valuekind  recordedresult
1  Cc1ccccc1-n1c(Cn2ncc3c(N)ncnc32)nc2cccc(C)c2c1=O  cell viability              95
2  CN(C)CCOC1=Cc2ccccc2Sc2ccc(Cl)cc21 [zotepine]  cell viability            91.8
3  C/C=C(/C)C(=O)O[C@H]1C(C)=C[C@]23C(=O)[C@@H](C=C(CO)[C@@H](O)[C@]12O)[C@H]1[C@@H](C[C@H]3C)C1(C)C [ingenol-mebutate]  cell viability            70.7

Next:
// returns reported cell viability for input "COc1cc(N2CCC(N3CCN(C)CC3)CC2)ccc1Nc1ncc(Cl)c(Nc2ccccc2S(=O)(=O)C(C)C)n1"
63.9
